The entries below come with measured pIC50 values attached.
Tested on: HCT-116
Test: Antiproliferative activity against human HCT-116 cells assessed as inhibition of cell growth incubated for 48 hrs by MTT assay
Format: functional, cell-based
Settings: HCT-116, 48 h
pIC50: −log10 of the molar value.

compound string: COc1cc(C(=O)c2cn3ccc(C(F)(F)F)cc3n2)cc(OC)c1OC
qualifier symbol: <
pIC50: 5.00

compound string: COc1cc(-c2nccn3cc(-c4ccc5[nH]ccc5c4)nc23)cc(OC)c1OC
qualifier symbol: =
pIC50: 7.64

compound string: COc1ccn2cc(C(=O)c3cc(OC)c(OC)c(OC)c3)nc2c1
qualifier symbol: =
pIC50: 5.19

compound string: COc1ccc(-c2cn3ccnc(-c4cc(OC)c(OC)c(OC)c4)c3n2)cc1[N+](=O)[O-]
qualifier symbol: <
pIC50: 5.00

compound string: COc1cc(C(=O)c2cn3ccnc(-c4ccc5[nH]ccc5c4)c3n2)cc(OC)c1OC
qualifier symbol: =
pIC50: 6.16

compound string: COc1cc(C(=O)c2cn3cc(Cl)cc(C(F)(F)F)c3n2)cc(OC)c1OC
qualifier symbol: <
pIC50: 5.00

compound string: COc1cc(C(=O)c2cn3ccc(C)cc3n2)cc(OC)c1OC
qualifier symbol: =
pIC50: 5.51

compound string: COc1cc(-c2nccn3cc(-c4ccc(C(F)(F)F)cc4)nc23)cc(OC)c1OC
qualifier symbol: <
pIC50: 5.00

compound string: COc1ccc(-c2cn3ccnc(-c4cc(OC)c(OC)c(OC)c4)c3n2)cc1O
qualifier symbol: =
pIC50: 7.13

compound string: COc1cc(C(=O)c2cn3ccc(C)c([N+](=O)[O-])c3n2)cc(OC)c1OC
qualifier symbol: <
pIC50: 5.00
